Below, each of the compounds is paired with its reported selectivity ratio value.
# TEST: Selectivity index, ratio of IC50 for human L02 cells to IC50 for human MV4-11 cells
# ASSAY CONTEXT: L02 cells and MV4-11 cells

Worked set:
• COc1ccc2[nH]cc(-c3c(OC)c(OC)c(-c4c[nH]c5ccccc45)c(OC)c3OC)c2c1 = > 15
• COc1c(OC)c(-c2c[nH]c3ccccc23)c(OC)c(OC)c1-c1c[nH]c2ccccc12 = > 17

Please examine the following record next.
For the compound COc1c(O)c(-c2c[nH]c3ccccc23)c2c(c1-c1c[nH]c3ccccc13)OC(C)(C)C=C2 , give its measured selectivity ratio value.
9
